// provenance: patent US10526316B2

- tested_target: kinase enzymes (Homo sapiens, UniProt P42336)
- Sequence (P42336 whole entry): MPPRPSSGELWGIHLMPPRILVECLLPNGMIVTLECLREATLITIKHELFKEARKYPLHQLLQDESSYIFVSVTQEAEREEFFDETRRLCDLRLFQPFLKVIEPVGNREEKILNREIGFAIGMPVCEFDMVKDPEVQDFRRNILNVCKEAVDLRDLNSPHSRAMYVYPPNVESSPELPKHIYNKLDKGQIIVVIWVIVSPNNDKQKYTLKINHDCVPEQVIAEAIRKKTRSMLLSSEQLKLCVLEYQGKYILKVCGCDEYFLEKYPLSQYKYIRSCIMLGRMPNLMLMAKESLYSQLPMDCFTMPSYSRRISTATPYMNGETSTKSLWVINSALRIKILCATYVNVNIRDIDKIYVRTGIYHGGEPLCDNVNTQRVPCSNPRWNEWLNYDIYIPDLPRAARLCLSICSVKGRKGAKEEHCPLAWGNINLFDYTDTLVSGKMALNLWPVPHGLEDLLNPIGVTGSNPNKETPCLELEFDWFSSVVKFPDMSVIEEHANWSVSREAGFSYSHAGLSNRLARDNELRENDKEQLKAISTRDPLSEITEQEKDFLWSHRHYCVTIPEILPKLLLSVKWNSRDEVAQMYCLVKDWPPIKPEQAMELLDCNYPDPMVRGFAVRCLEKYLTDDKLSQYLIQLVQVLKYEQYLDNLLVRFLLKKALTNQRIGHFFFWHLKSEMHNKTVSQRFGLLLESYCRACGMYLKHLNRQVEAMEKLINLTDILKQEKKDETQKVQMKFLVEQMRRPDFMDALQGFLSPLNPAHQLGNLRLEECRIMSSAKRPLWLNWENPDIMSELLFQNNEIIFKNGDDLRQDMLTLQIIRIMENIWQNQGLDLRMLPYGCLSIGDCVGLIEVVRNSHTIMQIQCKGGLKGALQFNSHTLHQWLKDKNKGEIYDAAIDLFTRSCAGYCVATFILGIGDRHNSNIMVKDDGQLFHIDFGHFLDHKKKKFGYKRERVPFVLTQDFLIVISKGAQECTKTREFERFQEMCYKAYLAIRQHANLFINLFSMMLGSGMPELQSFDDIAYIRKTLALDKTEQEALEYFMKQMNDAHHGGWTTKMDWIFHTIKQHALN

compound	result_qualifier	Kd, µM
Cc1cccc(NC(C)c2cc(C(=O)N3CCOCC3)cc3ncc(N4CCOCC4)nc23)c1 (stereo not drawn) [Compound 120]	=	6.76
CC(Oc1ccc(Cl)c(F)c1)c1cc(C(=O)N(C)CCN(C)C)cc2ncc(N3CCOCC3)nc12 (single isomer, unassigned) [Compound 313b]	=	14.5
CC(Nc1ccc(F)c(F)c1)c1cc(C(=O)NCC(C)(C)O)cc2ncc(N3CCOCC3)nc12 (single isomer, unassigned) [Compound 348b]	>	30.2

---

- tested_target: kinase enzymes (Homo sapiens, UniProt P42345)
pKd: −log10 of the molar value.
// values below are reported pKd

molecule	result_qualifier	pKd
CNCCNC(=O)c1cc(C(C)Oc2ccc(Cl)c(F)c2)c2nc(N3CCOCC3)cnc2c1 (stereo not shown) [Compound 380a]	=	4.72
CC(Oc1cc(F)c(F)c(F)c1)c1cc(C(=O)N(C)C2CCNC2)cc2ncc(N3CCOCC3)nc12 (single isomer, unassigned) [Compound 404b]	<	4.52
CC(Nc1cc(F)cc(F)c1)c1cc(Br)cc2ncc(N3CCOCC3)nc12 (stereo not shown)	<	4.52
C[C@@H](Nc1cc(F)cc(F)c1)c1cc(C(=O)NCCN(C)C)cc2ncc(N3CCOCC3)nc12 [Compound 184a]	=	4.66
CC(Nc1cc(F)c(F)c(F)c1)c1cc(C(=O)N(C)C2CCNC2)cc2ncc(N3CCOCC3)nc12 (single isomer, unassigned) [Compound 296a]	<	4.52
COC(=O)c1cc(C(C)Nc2cc(F)cc(Cl)c2)c2nc(N3CCOCC3)cnc2c1 (stereo not shown) [Compound 99]	<	4.52
C[C@@H](Nc1cc(F)cc(F)c1)c1cc(C(=O)NCCN(C)C)cc2ncc(N3CCOCC3)nc12 [Compound 184b]	=	4.70
CN(C)C(=O)c1cc(C(CO)N(C)c2cccc(F)c2)c2nc(N3CCOCC3)cnc2c1 (stereo not shown)	=	4.82
CC(Oc1ccc(F)c(F)c1)c1cc(C(=O)N2CCN3CCC[C@H]3C2)cc2ncc(N3CCOCC3)nc12 (single isomer, unassigned) [Compound 369b]	<	4.52
CNCCNC(=O)c1cc(C(C)Oc2ccc(F)c(F)c2)c2nc(N3CCOCC3)cnc2c1 (single isomer, unassigned) [Compound 344b]	<	4.52
CNCCOCCN(C)C(=O)c1cc(C(C)Nc2ccc(F)c(F)c2)c2nc(N3CCOCC3)cnc2c1 (single isomer, unassigned) [Compound 345b]	<	4.52
[2H]C([2H])(O)C([2H])([2H])NC(=O)c1cc(C(C)Nc2cccc(F)c2)c2nc(N3CCOCC3)cnc2c1 (single isomer, unassigned) [Compound 408a]	=	4.58
CC(Nc1cc(F)cc(F)c1)c1cc(C(=O)O)cc2ncc(N3CCOCC3)nc12 (single isomer, unassigned) [Compound 83b]	=	5.89
